Some variants, each annotated with its measured FACS-Seq fitted mean (log10).
B1: library; a variant is named by its letters at N, in order (parent)
chain: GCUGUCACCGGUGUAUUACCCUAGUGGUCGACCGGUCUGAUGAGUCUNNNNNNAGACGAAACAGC

Variants of: B1
Assay: FACS-Seq fitted mean relative fluorescence mCherry/BFP without ligand (log10 relative fluorescence); ligand: hypoxanthine (xanthine aptamer); higher = higher reporter protein expression
Settings: HEK293T, ligand present: no

Some solved cases for reference:
AUUGAU | 0.686
GAAUGC | 0.275
AGUUAG | 0.335
AGAAGG | 0.227
CAACGA | 0.153
ACAUGG | 0.335

Supply reported FACS-Seq fitted mean (log10) belonging to this variant: `AUUAGA`
0.629

Supply reported FACS-Seq fitted mean (log10) belonging to this variant: `UUCACA`
0.502

Supply reported FACS-Seq fitted mean (log10) belonging to this variant: `AUGUAC`
0.103

Supply reported FACS-Seq fitted mean (log10) belonging to this variant: `GGGCUG`
0.228

Supply reported FACS-Seq fitted mean (log10) belonging to this variant: `AGAGAU`
0.123

Data provenance is the supplement of paper PMC6757056.
